# assayOverview: Solubility in water
# Assay type: physicochemical
recordedEndpoint: solubility

Examples from the recorded data:
Look up solubility: `CC(C)NCCCn1c(Sc2cc3c(cc2Br)OCO3)nc2c(N)ncnc21`
> 5 mg/mL

# repeat for `CC(C)NCCCn1c(Sc2cc3c(cc2I)OCO3)nc2c(N)ncnc21`
> 5 mg/mL

More entries:
Look up solubility: `CC(C)NCCCn1c(Cc2cc3c(cc2I)OCO3)nc2c(N)nc(F)nc21`
> 5 mg/mL

====

# Test system: SK-BR-3
# assayOverview: Growth inhibition in human breast cancer SKBr3 cell line using SRB
# Format: functional, cell-based
recordedEndpoint: IC50 (nM)

Examples from the recorded data:
Look up IC50: `C#CCCCn1c(Sc2cc3c(cc2I)OCO3)nc2c(N)ncnc21`
90

# repeat for `C#CCCCn1c(Cc2cc(OC)c(OC)cc2Cl)nc2c(N)nc(F)nc21`
20600

# repeat for `C#CCCCn1c(Cc2cc3c(cc2Br)OCO3)nc2c(N)nc(F)nc21`
215

I. C#CCCCn1c(Cc2cc3c(cc2Cl)OCO3)nc2c(N)nc(F)nc21
II. C#CCCCn1c(Cc2cc(OC)c(OC)cc2Br)nc2c(N)nc(F)nc21
III. CC(C)NCCCn1c(Sc2cc3c(cc2Br)OCO3)nc2c(N)ncnc21
IV. CC(C)NCCCn1c(Cc2cc3c(cc2I)OCO3)nc2c(N)nc(F)nc21
V. C#CCCCn1c(Cc2cc3c(cc2I)OCO3)nc2c(N)nc(F)nc21
Arrange the 5 entries by IC50 so the values rise. Answer by listing the labels in the order asked for.
IV, V, III, I, II
(IV: 45 nM, V: 90 nM, III: 142 nM, I: 250 nM, II: 55000 nM)

====

# systemUnderTest: Heat shock protein HSP 90-beta (Homo sapiens)
# assayOverview: Inhibition of Her2 degradation in human breast cancer SKBr3 cell line
recordedEndpoint: IC50 (nM)

Look up IC50: `C#CCCCn1c(Sc2cc3c(cc2I)OCO3)nc2c(N)ncnc21`
100

A. C#CCCCn1c(Cc2cc3c(cc2Cl)OCO3)nc2c(N)nc(F)nc21
B. C#CCCCn1c(Cc2cc(OC)c(OC)cc2Cl)nc2c(N)nc(F)nc21
Field: lower recorded IC50 (choose A or B ) // caller expects the label of the chosen entry
A
(A: 300 nM, B: 30000 nM)

a. C#CCCCn1c(Sc2cc3c(cc2Br)OCO3)nc2c(N)ncnc21
b. C#CCCCn1c(Cc2cc3c(cc2I)OCO3)nc2c(N)nc(F)nc21
c. C#CCCCn1c(Cc2cc3c(cc2Br)OCO3)nc2c(N)nc(F)nc21
Sort the 3 compounds by IC50; largest first, smallest last. Answer by listing the labels in the order asked for.
a, c, b

====

# systemUnderTest: Heat shock protein HSP 90-beta (Homo sapiens, UniProt P08238)
# Sequence (P08238 whole entry): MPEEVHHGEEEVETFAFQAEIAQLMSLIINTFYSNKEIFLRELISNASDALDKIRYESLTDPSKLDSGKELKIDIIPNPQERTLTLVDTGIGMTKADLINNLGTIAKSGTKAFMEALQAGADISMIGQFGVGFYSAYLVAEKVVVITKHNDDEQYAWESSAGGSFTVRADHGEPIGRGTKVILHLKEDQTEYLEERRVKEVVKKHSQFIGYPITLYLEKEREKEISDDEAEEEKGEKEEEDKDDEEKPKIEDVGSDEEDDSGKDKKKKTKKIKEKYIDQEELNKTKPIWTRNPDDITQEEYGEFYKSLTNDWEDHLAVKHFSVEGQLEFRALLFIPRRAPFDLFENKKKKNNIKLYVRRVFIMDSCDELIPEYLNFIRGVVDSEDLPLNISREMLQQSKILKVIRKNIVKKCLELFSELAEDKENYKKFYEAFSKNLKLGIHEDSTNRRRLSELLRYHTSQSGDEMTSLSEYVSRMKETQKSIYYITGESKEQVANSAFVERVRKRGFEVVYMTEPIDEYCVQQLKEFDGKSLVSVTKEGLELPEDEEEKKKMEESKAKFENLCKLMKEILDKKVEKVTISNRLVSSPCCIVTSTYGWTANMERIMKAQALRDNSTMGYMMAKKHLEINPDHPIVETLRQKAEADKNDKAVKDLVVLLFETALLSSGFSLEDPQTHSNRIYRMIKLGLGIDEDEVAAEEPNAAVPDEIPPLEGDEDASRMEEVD
# assayOverview: Inhibition of Her2 degradation in human breast cancer SKBr3 cell line
recordedEndpoint: IC50

Examples from the recorded data:
Look up IC50: `C#CCCCn1c(Cc2cc(OC)c(OC)cc2Br)nc2c(N)nc(F)nc21`
> 50 µM

# repeat for `C#CCCCn1c(Cc2cc(OC)c(OC)cc2I)nc2c(N)nc(F)nc21`
> 50 µM

Moving on to another molecule below.
Look up IC50: `CC(C)NCCCn1c(Cc2cc3c(cc2I)OCO3)nc2c(N)nc(F)nc21`
0.08 µM
